Here, each record is paired with measured Value (binding intensity of His-tagged CD38), LOOP7 conformational peptide array data.
# targetOrTestSystem: recombinant His-tagged CD38 (Homo sapiens)
# protocolDescription: Pepscan-based ELISA of His-tagged CD38 on CD31 peptide arrays
# Format: binding
# conditions: mimic type LOOP7 (single loop, mP2 CLIPS); sample with the highest signal
observedProperty: Value (binding intensity of His-tagged CD38), LOOP7 conformational peptide array (mAU)

In [3]: df
Out[3]:
                                   substance  reading
 0            190 (CVRIYDSGC) [compound 190]      479
 1            206 (CVNITELFC) [compound 206]      625
 2            224 (CEGEYYSTC) [compound 224]      650
 3            177 (CSFADVSTC) [compound 177]      390
 4            219 (CSGEDIVLC) [compound 219]      573
 5            211 (CDAQFEVIC) [compound 211]      429
 6  5 (CSTESYFIC; Human sCD31 peptide) [compound 5]      668
 7            199 (CLAQEFPEC) [compound 199]      412
 8            179 (CLFYKDDVC) [compound 179]      604
 9            187 (CYFIPEVRC) [compound 187]      523
10            180 (CYKDDVLFC) [compound 180]      585
11            209 (CSYDAQFEC) [compound 209]      570
12            226 (CYYSTAFNC) [compound 226]      477

* * *

# targetOrTestSystem: recombinant His-tagged CD38 (Homo sapiens, UniProt P28907)
# protocolDescription: Pepscan-based ELISA of His-tagged CD38 on CD31 peptide arrays
# Type: binding
# conditions: mimic type BET (β-turn mimic, mP2 CLIPS); sample with the highest signal
Kindly apply the following: yes (1) if Value (binding intensity of His-tagged CD38), BET conformational peptide array is less than 800 mAU, no (0) in every other case.

                                  substance                        targetortestsystem  grouplabel
0  277 (CSKVESSRISPGSSIVVNITEC) [compound 277]  recombinant His-tagged CD38 (Homo sapiens, UniProt P28907)      no (0)
1  16 (CSEVLRVKVIPGVDEVQISILC; Human CD31 peptide) [compound 16]  recombinant His-tagged CD38 (Homo sapiens, UniProt P28907)     yes (1)
2  283 (CLSEVLRVKVPGPVDEVQISIC) [compound 283]  recombinant His-tagged CD38 (Homo sapiens, UniProt P28907)     yes (1)
3  14 (CPPANFTIQKPGTIVSQTQDFC; Human sCD31 peptide) [compound 14]  recombinant His-tagged CD38 (Homo sapiens, UniProt P28907)     yes (1)

* * *

# targetOrTestSystem: recombinant His-tagged CD38 (Homo sapiens)
# protocolDescription: Pepscan-based ELISA of His-tagged CD38 on CD31 peptide arrays
# Assay type: binding
# conditions: mimic type LOOP7 (single loop, mP2 CLIPS); sample with the highest signal
Here, each record is paired with measured Value (binding intensity of His-tagged CD38), LOOP7 conformational peptide array data.
observedProperty: Value (binding intensity of His-tagged CD38), LOOP7 conformational peptide array (mAU)

>>> df
                         substance                        targetortestsystem  reading
 0  201 (CQEFPEIIC) [compound 201]  recombinant His-tagged CD38 (Homo sapiens)      476
 1  210 (CYDAQFEVC) [compound 210]  recombinant His-tagged CD38 (Homo sapiens)      628
 2  291 (CNFVILEFC) [compound 291]  recombinant His-tagged CD38 (Homo sapiens)     1186
 3  200 (CAQEFPEIC) [compound 200]  recombinant His-tagged CD38 (Homo sapiens)      429
 4  176 (CQSFADVSC) [compound 176]  recombinant His-tagged CD38 (Homo sapiens)      413
 5  215 (CDEVQISIC) [compound 215]  recombinant His-tagged CD38 (Homo sapiens)      378
 6  191 (CRIYDSGTC) [compound 191]  recombinant His-tagged CD38 (Homo sapiens)      395
 7  223 (CQEGEYYSC) [compound 223]  recombinant His-tagged CD38 (Homo sapiens)      619
 8  178 (CMLFYKDDC) [compound 178]  recombinant His-tagged CD38 (Homo sapiens)      542
 9  213 (CPTEDVEYC) [compound 213]  recombinant His-tagged CD38 (Homo sapiens)      407
10  188 (CFIPEVRIC) [compound 188]  recombinant His-tagged CD38 (Homo sapiens)      414
11  195 (CDQNFVILC) [compound 195]  recombinant His-tagged CD38 (Homo sapiens)      628
12  197 (CVILEFPVC) [compound 197]  recombinant His-tagged CD38 (Homo sapiens)      527

* * *

# targetOrTestSystem: recombinant His-tagged CD38 (Homo sapiens, UniProt P28907)
# protocolDescription: Pepscan-based ELISA of His-tagged CD38 on CD31 peptide arrays
# Type: binding
# conditions: mimic type BET (β-turn mimic, mP2 CLIPS); sample with the highest signal
Here, each record is paired with measured Value (binding intensity of His-tagged CD38), BET conformational peptide array data.
observedProperty: Value (binding intensity of His-tagged CD38), BET conformational peptide array (mAU)

>>> df
                                  substance                        targetortestsystem  reading
0  272 (CDDVLFYNISPGKSTESYFIPC) [compound 272]  recombinant His-tagged CD38 (Homo sapiens, UniProt P28907)      524
1  280 (CQIVVSEMLSPGRISYDAQFEC) [compound 280]  recombinant His-tagged CD38 (Homo sapiens, UniProt P28907)      417
2  279 (CPANFTIQKEPGIVSQTQDFTC) [compound 279]  recombinant His-tagged CD38 (Homo sapiens, UniProt P28907)      461
3  275 (CKLKREKNSRPGNFVILEFPVC) [compound 275]  recombinant His-tagged CD38 (Homo sapiens, UniProt P28907)      833
4  265 (CTTSHVKPQHPGLFYKDDVLFC) [compound 265]  recombinant His-tagged CD38 (Homo sapiens, UniProt P28907)      679
5  282 (CVVSEMLSQPPGSYDAQFEVIC) [compound 282]  recombinant His-tagged CD38 (Homo sapiens, UniProt P28907)      635

* * *

# targetOrTestSystem: recombinant His-tagged CD38 (Homo sapiens, UniProt P28907)
# protocolDescription: Pepscan-based ELISA of His-tagged CD38 on CD31 peptide arrays
# Assay type: binding
# conditions: mimic type LIN15; sample with the highest signal (His-tagged CD38 9 or 20 µg/mL)
observedProperty: Value (binding intensity of His-tagged CD38), LIN15 linear peptide array (mAU)

In [3]: df
Out[3]:
                                   substance                        targetortestsystem  reading
 0      120 (NSNDPAVFKDNPTED) [compound 120]  recombinant His-tagged CD38 (Homo sapiens, UniProt P28907)      421
 1        30 (KPQHQMLFYKDDVLF) [compound 30]  recombinant His-tagged CD38 (Homo sapiens, UniProt P28907)      355
 2        78 (RDQNFVILEFPVEEQ) [compound 78]  recombinant His-tagged CD38 (Homo sapiens, UniProt P28907)     1021
 3  6 (NSRDQNFVILEFPVE; Human sCD31 peptide) [compound 6]  recombinant His-tagged CD38 (Homo sapiens, UniProt P28907)     1230
 4        36 (MLFYKDDVLFYNISS) [compound 36]  recombinant His-tagged CD38 (Homo sapiens, UniProt P28907)      451
 5      172 (EQEGEYYCTAFNRAN) [compound 172]  recombinant His-tagged CD38 (Homo sapiens, UniProt P28907)      340
 6        80 (DQNFVILEFPVEEQD) [compound 80]  recombinant His-tagged CD38 (Homo sapiens, UniProt P28907)      963
 7      124 (VFKDNPTEDVEYQCV) [compound 124]  recombinant His-tagged CD38 (Homo sapiens, UniProt P28907)      303
 8      100 (SSRISKVSSIVVNIT) [compound 100]  recombinant His-tagged CD38 (Homo sapiens, UniProt P28907)      168
 9        38 (LFYKDDVLFYNISSM) [compound 38]  recombinant His-tagged CD38 (Homo sapiens, UniProt P28907)      383
10      169 (QKASKEQEGEYYCTA) [compound 169]  recombinant His-tagged CD38 (Homo sapiens, UniProt P28907)      316
11        32 (QHQMLFYKDDVLFYN) [compound 32]  recombinant His-tagged CD38 (Homo sapiens, UniProt P28907)      460
12      122 (DPAVFKDNPTEDVEY) [compound 122]  recombinant His-tagged CD38 (Homo sapiens, UniProt P28907)      402
13        74 (KREKNSRDQNFVILE) [compound 74]  recombinant His-tagged CD38 (Homo sapiens, UniProt P28907)      440
14      121 (SNDPAVFKDNPTEDV) [compound 121]  recombinant His-tagged CD38 (Homo sapiens, UniProt P28907)      410
15      171 (SKEQEGEYYCTAFNR) [compound 171]  recombinant His-tagged CD38 (Homo sapiens, UniProt P28907)      454
16        83 (NFVILEFPVEEQDRV) [compound 83]  recombinant His-tagged CD38 (Homo sapiens, UniProt P28907)      631
17      102 (ISKVSSIVVNITELF) [compound 102]  recombinant His-tagged CD38 (Homo sapiens, UniProt P28907)      642
18        77 (KNSRDQNFVILEFPV) [compound 77]  recombinant His-tagged CD38 (Homo sapiens, UniProt P28907)      502
19      104 (KVSSIVVNITELFSK) [compound 104]  recombinant His-tagged CD38 (Homo sapiens, UniProt P28907)      155
20      170 (ASKEQEGEYYCTAFN) [compound 170]  recombinant His-tagged CD38 (Homo sapiens, UniProt P28907)      400
21        75 (REKNSRDQNFVILEF) [compound 75]  recombinant His-tagged CD38 (Homo sapiens, UniProt P28907)      453
22      123 (PAVFKDNPTEDVEYQ) [compound 123]  recombinant His-tagged CD38 (Homo sapiens, UniProt P28907)      333
23        33 (HQMLFYKDDVLFYNI) [compound 33]  recombinant His-tagged CD38 (Homo sapiens, UniProt P28907)      441
24      101 (RISKVSSIVVNITEL) [compound 101]  recombinant His-tagged CD38 (Homo sapiens, UniProt P28907)      572
25      168 (KQKASKEQEGEYYCT) [compound 168]  recombinant His-tagged CD38 (Homo sapiens, UniProt P28907)      337
